Test system: ATP;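 further: ATP exposure 15 min at 22 °C before imaging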
assay.text: switch fluorescence ratio, 500 uM ATP over buffer (Cy3 cluster intensity, sum of 5 cycles each) (fold (ratio)); higher = stronger signal-on switching upon ATP binding; sequences stand for … in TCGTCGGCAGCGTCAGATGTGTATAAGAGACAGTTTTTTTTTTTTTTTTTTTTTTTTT…TC
conditions: aptamer strand: ATP DNA aptamer (quencher-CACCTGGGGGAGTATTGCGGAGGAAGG + anchor), 100 nM annealed; ATP concentration: 500 uM
parameter.measured: switch fluorescence ratio
# output: bare number, no unit

TTCACGAGTG :: 0.988
AAGGTGGTTT :: 0.957
GAGGTGAGAG :: 1.02

Prompt: Using the record for CGGAGTTAAG , report its switch fluorescence ratio.
Response: 1.07

Prompt: Using the record for TGGTTTACTC , report its switch fluorescence ratio.
Response: 1.14

Prompt: Using the record for CACCACGTGG , report its switch fluorescence ratio.
Response: 1.01

---

Test system: ATP;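 further: ATP exposure 15 min at 22 °C before imaging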
assay.text: switch fluorescence ratio, 500 uM ATP over buffer (Cy3 cluster intensity, sum of 5 cycles each) (fold (ratio)); higher = stronger signal-on switching upon ATP binding; sequences stand for … in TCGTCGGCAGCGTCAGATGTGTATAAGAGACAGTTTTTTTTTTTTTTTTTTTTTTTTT…TC
conditions: aptamer strand: ATP DNA aptamer (quencher-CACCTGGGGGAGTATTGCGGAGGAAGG + anchor), 100 nM annealed; ATP concentration: 500 uM
Some sequences, each annotated with its measured switch fluorescence ratio.
# output: bare number, no unit

The examples below pair each entry with its known result.
AGGATGGAGT :: 0.987
TTTGTGGGTA :: 1.01
TTAGTTGAGT :: 1.02
TTACATTTTG :: 1.01

Prompt: Using the record for GTTGGTGCAC , report its switch fluorescence ratio.
Response: 0.98

Prompt: Using the record for GGATTATTGG , report its switch fluorescence ratio.
Response: 1

Prompt: Using the record for TTGGGATAAC , report its switch fluorescence ratio.
Response: 1.04

Prompt: Using the record for CTGTGGCAGG , report its switch fluorescence ratio.
Response: 1.02

Prompt: Using the record for GGGGAAGTGC , report its switch fluorescence ratio.
Response: 1.01

Prompt: Using the record for TATACGTCTA , report its switch fluorescence ratio.
Response: 1.07

Prompt: Using the record for GGTGCTTTGG , report its switch fluorescence ratio.
Response: 0.993

Prompt: Using the record for GCGGCGGAGG , report its switch fluorescence ratio.
Response: 0.995

Prompt: Using the record for AACTTTTCTA , report its switch fluorescence ratio.
Response: 0.976

Prompt: Using the record for TCAAATGGTA , report its switch fluorescence ratio.
Response: 1.01

Prompt: Using the record for TTTGTGGTGG , report its switch fluorescence ratio.
Response: 1.01

Prompt: Using the record for TAAGGGTGTG , report its switch fluorescence ratio.
Response: 1

---

Some sequences, each annotated with its measured switch fluorescence ratio.
Tested on: ATP;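 further: ATP exposure 15 min at 22 °C before imaging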
assay.text: switch fluorescence ratio, 500 uM ATP over buffer (Cy3 cluster intensity, sum of 5 cycles each) (fold (ratio)); higher = stronger signal-on switching upon ATP binding; sequences stand for … in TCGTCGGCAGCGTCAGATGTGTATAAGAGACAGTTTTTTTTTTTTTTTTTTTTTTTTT…TC
conditions: aptamer strand: ATP DNA aptamer (quencher-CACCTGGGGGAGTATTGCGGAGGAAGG + anchor), 100 nM annealed; ATP concentration: 500 uM
# output: bare number, no unit

TAAAGGAAAA :: 1.01

Prompt: Record lookup: for ATP, what switch fluorescence ratio belongs to TTAGATGCGG ?
Response: 1.01

Prompt: Record lookup: for ATP, what switch fluorescence ratio belongs to GAGCACGGGT ?
Response: 1.04

Prompt: Record lookup: for ATP, what switch fluorescence ratio belongs to AGCTGAGGCT ?
Response: 0.999

Prompt: Record lookup: for ATP, what switch fluorescence ratio belongs to CAATACCTAT ?
Response: 1.05

Prompt: Record lookup: for ATP, what switch fluorescence ratio belongs to GGTAAATATG ?
Response: 1

Prompt: Record lookup: for ATP, what switch fluorescence ratio belongs to CGGAAAAAGT ?
Response: 0.97

Prompt: Record lookup: for ATP, what switch fluorescence ratio belongs to AGGGTTTCCA ?
Response: 1.01

Prompt: Record lookup: for ATP, what switch fluorescence ratio belongs to ATGCTATACT ?
Response: 1.6

Prompt: Record lookup: for ATP, what switch fluorescence ratio belongs to AAGGCGGGTT ?
Response: 0.989

---

System: ATP;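 further: ATP exposure 15 min at 22 °C before imaging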
assay.text: switch fluorescence ratio, 500 uM ATP over buffer (Cy3 cluster intensity, sum of 5 cycles each) (fold (ratio)); higher = stronger signal-on switching upon ATP binding; sequences stand for … in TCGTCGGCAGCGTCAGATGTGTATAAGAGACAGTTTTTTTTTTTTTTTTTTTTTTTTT…TC
conditions: aptamer strand: ATP DNA aptamer (quencher-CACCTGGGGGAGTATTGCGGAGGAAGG + anchor), 100 nM annealed; ATP concentration: 500 uM
parameter.measured: switch fluorescence ratio
# output: bare number, no unit

CCCAGGGGA :: 1.91
AAGTTGGGT :: 0.95
AAATTGGGTG :: 1.02
AAATGTAAAA :: 1.01
GATGAAGCCT :: 1.17

Prompt: Record lookup: for ATP, what switch fluorescence ratio belongs to TGAAATCAGT ?
Response: 1.01

Prompt: Record lookup: for ATP, what switch fluorescence ratio belongs to GAACGTTATT ?
Response: 1.2

---

Tested on: ATP;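 further: ATP exposure 15 min at 22 °C before imaging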
assay.text: switch fluorescence ratio, 500 uM ATP over buffer (Cy3 cluster intensity, sum of 5 cycles each) (fold (ratio)); higher = stronger signal-on switching upon ATP binding; sequences stand for … in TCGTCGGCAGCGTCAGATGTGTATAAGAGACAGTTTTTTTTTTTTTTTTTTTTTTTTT…TC
conditions: aptamer strand: ATP DNA aptamer (quencher-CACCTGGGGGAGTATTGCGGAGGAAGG + anchor), 100 nM annealed; ATP concentration: 500 uM
Note to self: values exactly at 1 are condition met. So switch fluorescence ratio at or above 1 is condition met, below is condition not met.

Here's what some known entries look like.
GACCGGATTC :: condition met
CCTTCCGGGG :: condition met

Prompt: Is the recorded value of switch fluorescence ratio equal to or greater than 1 for this sequence? ATGGTTGTTC
Response: condition met

Prompt: Is the recorded value of switch fluorescence ratio equal to or greater than 1 for this sequence? ACGGGGTGGT
Response: condition met

Prompt: Is the recorded value of switch fluorescence ratio equal to or greater than 1 for this sequence? TCGGTGCGAC
Response: condition met

Prompt: Is the recorded value of switch fluorescence ratio equal to or greater than 1 for this sequence? CAGGGACATT
Response: condition met

Prompt: Is the recorded value of switch fluorescence ratio equal to or greater than 1 for this sequence? GCCATCATGC
Response: condition not met

Prompt: Is the recorded value of switch fluorescence ratio equal to or greater than 1 for this sequence? TTAAAATCCT
Response: condition met

Prompt: Is the recorded value of switch fluorescence ratio equal to or greater than 1 for this sequence? GCTAGCCAAG
Response: condition met

Prompt: Is the recorded value of switch fluorescence ratio equal to or greater than 1 for this sequence? TGGGGGCCAA
Response: condition not met

Prompt: Is the recorded value of switch fluorescence ratio equal to or greater than 1 for this sequence? GAGAGCAAAT
Response: condition met

Prompt: Is the recorded value of switch fluorescence ratio equal to or greater than 1 for this sequence? TTGGGGAAGC
Response: condition not met

Prompt: Is the recorded value of switch fluorescence ratio equal to or greater than 1 for this sequence? CTGCAAGCGG
Response: condition met

Prompt: Is the recorded value of switch fluorescence ratio equal to or greater than 1 for this sequence? AGCAGGGTTG
Response: condition met

Prompt: Is the recorded value of switch fluorescence ratio equal to or greater than 1 for this sequence? ATGAGGGGAA
Response: condition met

Prompt: Is the recorded value of switch fluorescence ratio equal to or greater than 1 for this sequence? CGTGGGGGGA
Response: condition met

Prompt: Is the recorded value of switch fluorescence ratio equal to or greater than 1 for this sequence? CGAAATGGGT
Response: condition met

Prompt: Is the recorded value of switch fluorescence ratio equal to or greater than 1 for this sequence? ATTTACTTCT
Response: condition met

Prompt: Is the recorded value of switch fluorescence ratio equal to or greater than 1 for this sequence? TTTAGAAACT
Response: condition met

Prompt: Is the recorded value of switch fluorescence ratio equal to or greater than 1 for this sequence? TATTGGTTTG
Response: condition met

---

System: ATP;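 further: ATP exposure 15 min at 22 °C before imaging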
assay.text: switch fluorescence ratio, 500 uM ATP over buffer (Cy3 cluster intensity, sum of 5 cycles each) (fold (ratio)); higher = stronger signal-on switching upon ATP binding; sequences stand for … in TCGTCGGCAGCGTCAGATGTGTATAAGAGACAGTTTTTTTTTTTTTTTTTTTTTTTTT…TC
conditions: aptamer strand: ATP DNA aptamer (quencher-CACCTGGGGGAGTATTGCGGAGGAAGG + anchor), 100 nM annealed; ATP concentration: 500 uM
Note to self: values exactly at 1 are TRUE. So switch fluorescence ratio at or above 1 is TRUE, below is FALSE.

Here's what some known entries look like.
GTAAGGTAAG :: TRUE
CCTGGGAGCA :: TRUE
GGGGCTGTTG :: FALSE
TGTGCTGCTG :: TRUE

Prompt: Is the recorded value of switch fluorescence ratio equal to or greater than 1 for this sequence? GTGGTGATAG
Response: FALSE

Prompt: Is the recorded value of switch fluorescence ratio equal to or greater than 1 for this sequence? ATTACTAGTG
Response: TRUE

Prompt: Is the recorded value of switch fluorescence ratio equal to or greater than 1 for this sequence? TTACGTTTTG
Response: TRUE

Prompt: Is the recorded value of switch fluorescence ratio equal to or greater than 1 for this sequence? GAGGGTAGCG
Response: FALSE

Prompt: Is the recorded value of switch fluorescence ratio equal to or greater than 1 for this sequence? GTATTAGGTG
Response: TRUE

Prompt: Is the recorded value of switch fluorescence ratio equal to or greater than 1 for this sequence? CGATTTTGGT
Response: FALSE

Prompt: Is the recorded value of switch fluorescence ratio equal to or greater than 1 for this sequence? AGGGAGTGGG
Response: FALSE

Prompt: Is the recorded value of switch fluorescence ratio equal to or greater than 1 for this sequence? TGTTGCCGGG
Response: TRUE

Prompt: Is the recorded value of switch fluorescence ratio equal to or greater than 1 for this sequence? GGAAAGTACG
Response: TRUE
